- experimental_system: Cathepsin D (Cat D) (Homo sapiens, UniProt P07339)
- Construct: Recombinant Cat D was expressed in CHO cells; made in house; host or cells: CHO cells
- Sequence (P07339 65-412, species assumed): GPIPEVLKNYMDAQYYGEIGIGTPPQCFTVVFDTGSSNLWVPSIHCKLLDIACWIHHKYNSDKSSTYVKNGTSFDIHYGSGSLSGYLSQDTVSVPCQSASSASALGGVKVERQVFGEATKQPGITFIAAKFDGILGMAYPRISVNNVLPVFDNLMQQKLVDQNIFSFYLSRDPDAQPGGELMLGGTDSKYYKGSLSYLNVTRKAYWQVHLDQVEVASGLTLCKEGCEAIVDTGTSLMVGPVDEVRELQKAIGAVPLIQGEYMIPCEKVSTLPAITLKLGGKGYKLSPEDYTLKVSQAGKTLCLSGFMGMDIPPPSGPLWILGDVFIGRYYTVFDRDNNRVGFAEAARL
- assay_summary: In vitro enzymatic Cathepsin D (Cat D) FRET assay
- Format: biochemical
- run_parameters: read-out: CatD IC50
readout_label: IC50 (µM)
Number in µM, nothing else.

For Cc1cc(Cl)cnc1C(=O)Nc1ccc(F)c([C@@]2(C)N=C(N)C3(CC3)S(=O)(=O)[C@@H]2F)c1 on Cathepsin D (Cat D) (Homo sapiens, UniProt P07339), measured IC50 was 182

For CC1(C)C(N)=N[C@](C)(c2cc(Oc3ncc(C(F)(F)F)cc3Cl)ccc2F)CS1(=O)=O on Cathepsin D (Cat D) (Homo sapiens, UniProt P07339), measured IC50 was 221

Entry CC1(C)C(N)=N[C@](C)(c2cc(NC(=O)c3ccc(Cl)cn3)cc(F)c2F)CS1(=O)=O under Cathepsin D (Cat D) (Homo sapiens, UniProt P07339) had IC50 of 72.8

Response field IC50 (Cathepsin D (Cat D) (Homo sapiens, UniProt P07339)) for item Cc1ccc(Oc2ccc(F)c([C@]3(C)CS(=O)(=O)C(C)(C)C(N)=N3)c2)nc1 : 373

So the reported IC50 for Cc1cc(Cl)cnc1C(=O)Nc1ccc(F)c([C@@]2(C)N=C(N)C3(CC3)S(=O)(=O)[C@H]2F)c1 , on Cathepsin D (Cat D) (Homo sapiens, UniProt P07339), turned out to be 28

Fill in: Cathepsin D (Cat D) (Homo sapiens, UniProt P07339) IC50 for CC1(C)C(N)=N[C@](C)(c2cc(Nc3ncnc4cc(C#N)cnc34)cnc2F)CS1(=O)=O = 47.3

----------
- experimental_system: Cathepsin D (Cat D) (Homo sapiens, UniProt P07339)
- Construct: Recombinant Cat D was expressed in CHO cells; made in house; host or cells: CHO cells
- assay_summary: In vitro enzymatic Cathepsin D (Cat D) FRET assay
- Type: biochemical
- run_parameters: read-out: CatD IC50
readout_label: pIC50
Units for pIC50: none; it is -log10 of a concentration expressed in mol/L.

Noted for CC1(C)C(N)=N[C@](C)(c2cc(Oc3ccc(F)c(C(F)(F)F)n3)ccc2F)CS1(=O)=O [Example 284] : its pIC50 reads 4.10

The reported value for CC1(C)C(N)=N[C@](C)(c2cc(NC(=O)c3ncc(Cl)cc3Br)ccc2F)CS1(=O)=O [Example 352] in terms of pIC50 is 3.39

// pIC50 value for C[C@@]1(c2cc(Nc3nccc4cc(C#N)cnc34)ccc2F)CS(=O)(=O)C2(CCC2)C(N)=N1 [Example 117] : 4.55

Cc1cc(C(F)(F)F)cc(Oc2ccc(F)c([C@]3(C)CS(=O)(=O)C(C)(C)C(N)=N3)c2)n1 [Example 298] yielded pIC50 of 3.26

----------
- System: Aβ40 in conditioned medium of cells stably expressing Amyloid Precursor Protein (APP)
- assay_summary: In vitro BACE cell-based assay (HEK cell assay), Aβ40 sandwich ELISA
- run_parameters: Homo sapiens, HEK293; Aβ40, 24 h incubation
Kindly state IC50 for each of the entries shown.
Supply the numeric figure in nM, leaving out any unit text.

The recorded IC50 for entry Cc1cc(Cl)cnc1C(=O)Nc1ccc(F)c([C@]2(C)CS(=O)(=O)C(C)(C)C(N)=N2)c1 equals 3.2

The value of IC50 measured for the molecule CC1(C)C(N)=N[C@@](C)(c2cc(Nc3nccc4nc(O)cnc34)cc(F)c2F)CS1(=O)=O turned out to be 5350

For COc1cc(C)ccc1Oc1ccc(F)c([C@]2(C)CS(=O)(=O)C(C)(C)C(N)=N2)c1 the molecule record lists IC50 as 6860

Recorded IC50 (molecule CC1(C)C(N)=N[C@@](C)(c2cc(NC(=O)c3ccc(Cl)cn3)cc(F)c2F)CS1(=O)=O ): 3270

Data point: CC1(C)C(N)=N[C@](C)(c2cc(NC(=O)c3ccc(C(F)F)cn3)ccc2F)CS1(=O)=O ; IC50 = 3.9

IC50 measured on COc1cnc2c(Nc3ccc(F)c([C@]4(C)CS(=O)(=O)C5(CC5)C(N)=N4)c3)nccc2c1 = 8.2

Item: CC1(C)C(N)=N[C@](C)(c2cc(Oc3ccc(C#N)cc3)ccc2F)CS1(=O)=O | IC50: 6020

Note to self: IC50 recorded for CC#CCOc1cnc(C(=O)Nc2ccc(F)c([C@]3(C)CS(=O)(=O)C(C)(C)C(N)=N3)c2)cn1 was 0.05

According to the records, this molecule COc1cnc2c(Nc3ccc(F)c([C@]4(C)CS(=O)(=O)C(C)(C)C(N)=N4)c3)ncc(F)c2c1 displays IC50 of 5.3

CC1(C)C(N)=N[C@](C)(c2cc(Sc3cccc4ccccc34)ccc2F)CS1(=O)=O has a reported IC50 of 4940

# IC50 of C[C@]1(F)C(N)=N[C@](C)(c2cc(Nc3nccc4cc(C#N)cnc34)ccc2F)CS1(=O)=O = 80.8

Kindly note the recorded IC50 for COc1cnc2c(Nc3ccc(F)c([C@@]4(C)N=C(N)C(C)(C)S(=O)(=O)[C@@H]4F)c3)nccc2c1 , which is 60.4

For COc1cnc2c(Nc3ccc(F)c([C@]4(C)CS(=O)(=O)C(C)(C)C(N)=N4)c3)nccc2c1 the molecule record lists IC50 as 4

----------
- experimental_system: Cathepsin D (Cat D) (Homo sapiens, UniProt P07339)
- Construct: Recombinant Cat D was expressed in CHO cells; made in house; host or cells: CHO cells
- assay_summary: In vitro enzymatic Cathepsin D (Cat D) FRET assay
- Assay type: biochemical
- run_parameters: read-out: CatD IC50
I'd appreciate it if you marked entries True when IC50 is lower than 200 µM and False when it is not.

Given the entry CC1(C)C(N)=N[C@](C)(c2cc(C(=O)Nc3ccc(Cl)cc3)ccc2F)CS1(=O)=O , would its reported IC50 be below 200 µM?
False

Does the reported IC50 of COc1cc(Cl)cnc1C(=O)Nc1ccc(F)c([C@]2(CF)CS(=O)(=O)C3(CCC3)C(N)=N2)c1 stay below 200 µM?
False

# check: IC50 < 200 µM for C[C@@]1(c2cc(NC(=O)c3ccc(Cl)cn3)ccc2F)CS(=O)(=O)[C@]2(C[C@@H](F)C2)C(N)=N1
True

# TODO verify IC50 < 200 µM strictly for this molecule: CC1(C)C(N)=N[C@](C)(c2cc(Nc3ncnc4cc(OCC5CC5)cnc34)ccc2F)CS1(=O)=O
False

Please indicate whether the reported IC50 of COc1cnc2c(Oc3ccc(F)c([C@]4(C)CS(=O)(=O)C(C)(C)C(N)=N4)c3)nccc2c1 is strictly below 200 µM.
False

Hello, I'm reviewing records and need to know if IC50 of Cc1cnc(C(=O)Nc2ccc(F)c([C@]3(C)CS(=O)(=O)C(C)(C)C(N)=N3)c2)cn1 is below 200 µM. Could you check?
False

Given C[C@]1(c2cc(NC(=O)c3ccc(Cl)cn3)ccc2F)N=C(N)C2(CC2)S(=O)(=O)[C@@H]1F , is recorded IC50 strictly lower than 200 µM?
True

----------
- Tested on: Aβ40 in conditioned medium of cells stably expressing Amyloid Precursor Protein (APP)
- assay_summary: In vitro BACE cell-based assay (HEK cell assay), Aβ40 sandwich ELISA
- run_parameters: Homo sapiens, HEK293; average IC50, HEK cells
Rule for this label: true means IC50 is less than 4 nM; false means IC50 is at least 4 nM.

Consider C[C@@]1(c2cc(NC(=O)c3ccc(Cl)cn3)ccc2F)CS(=O)(=O)C2(CC2)C(N)=N1 . Does its IC50 lie strictly below 4 nM?
true

Identify whether the compound Cc1cc(C(F)F)cnc1C(=O)Nc1ccc(F)c([C@@]2(C)N=C(N)C3(CC3)S(=O)(=O)[C@H]2F)c1 records IC50 below 4 nM.
false

is_below(IC50, 4 nM) for Cc1cc(Cl)cnc1C(=O)Nc1cnc(F)c([C@]2(C)CS(=O)(=O)C3(CC3)C(N)=N2)c1 ?
false

In the record for COCc1cc(Cl)cnc1C(=O)Nc1ccc(F)c([C@]2(CF)CS(=O)(=O)C(C)(C)C(N)=N2)c1 , is IC50 less than 4 nM?
false

is_below(IC50, 4 nM) for C[C@]1(c2cc(NC(=O)c3ccc(Cl)cn3)ccc2F)N=C(N)C2(CC2)S(=O)(=O)[C@H]1F ?
true

Please determine if Cc1cc(C(F)F)cnc1C(=O)Nc1ccc(F)c([C@@]2(C)N=C(N)C3(CC3)S(=O)(=O)[C@@H]2F)c1 is below 4 nM in terms of IC50.
false

----------
- System: Aβ40 in conditioned medium of cells stably expressing Amyloid Precursor Protein (APP)
- assay_summary: In vitro BACE cell-based assay (HEK cell assay), Aβ40 sandwich ELISA
- run_parameters: Homo sapiens, HEK293
readout_label: IC50 (nM)
Give a bare numeral; the unit nM is implied.

Value of IC50 reported for the compound Cc1cc(OCC2CC2)cnc1C(=O)Nc1ccc(F)c([C@]2(CF)CS(=O)(=O)C3(CCC3)C(N)=N2)c1 is 77

Looking up CC1(C)C(N)=N[C@](CF)(c2cc(NC(=O)c3ccc(C(F)(F)F)cn3)ccc2F)CS1(=O)=O , I see its IC50 listed as 20

For Cc1cc(OC(F)F)cnc1C(=O)Nc1ccc(F)c([C@]2(CF)CS(=O)(=O)C3(CCC3)C(N)=N2)c1 the compound record lists IC50 as 8.2

// field: IC50; key: C[C@]1(c2cc(NC(=O)c3cnc(C(F)F)cn3)ccc2F)N=C(N)C2(CCC2)S(=O)(=O)[C@@H]1F ; value = 14.6
